- Format: in vivo, human
- CONDITIONS_USED: both, human, plasma, po, 10 mg, AUC0–24, control (water), geometric mean
PARAMETER: AUC(0-t)
Include the unit after the number when you answer.

What measured AUC(0-t) goes with NCCCC[C@H](N[C@@H](CCc1ccccc1)C(=O)O)C(=O)N1CCC[C@H]1C(=O)O [lisinopril] ? 504 ng·h/mL

###

- Type: in vivo, human
- CONDITIONS_USED: both, human, plasma, po, 10 mg, AUC0–24, GTE, geometric mean
PARAMETER: AUC(0-t) (ng·h/mL)
Give the quantity in ng·h/mL, number only.

What measured AUC(0-t) goes with NCCCC[C@H](N[C@@H](CCc1ccccc1)C(=O)O)C(=O)N1CCC[C@H]1C(=O)O ? 157
